# Study System: epidermal growth factor receptor kinase (EGF-R), His-tagged cytoplasmic domain of EGFR (Homo sapiens, UniProt P00533)
# Construct: containing the EGFR cDNA encoding amino acids 645-1186 preceded by Met-Ala-(His)6
# Sequence (P00533 669-1210): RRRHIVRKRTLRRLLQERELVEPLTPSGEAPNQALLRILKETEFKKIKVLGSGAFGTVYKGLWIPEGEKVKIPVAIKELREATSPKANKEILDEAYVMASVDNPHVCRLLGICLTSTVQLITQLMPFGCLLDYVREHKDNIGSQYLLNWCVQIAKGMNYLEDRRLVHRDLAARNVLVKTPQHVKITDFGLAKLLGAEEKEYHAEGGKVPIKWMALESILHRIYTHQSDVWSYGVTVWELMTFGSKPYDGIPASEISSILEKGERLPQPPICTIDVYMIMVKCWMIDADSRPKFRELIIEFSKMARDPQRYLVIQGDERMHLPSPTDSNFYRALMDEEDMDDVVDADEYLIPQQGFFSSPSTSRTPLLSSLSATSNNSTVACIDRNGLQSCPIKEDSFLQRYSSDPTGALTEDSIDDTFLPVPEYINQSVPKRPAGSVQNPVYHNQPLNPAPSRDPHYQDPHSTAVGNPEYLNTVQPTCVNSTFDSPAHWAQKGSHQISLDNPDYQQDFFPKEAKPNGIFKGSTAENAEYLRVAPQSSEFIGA
# Experiment: Inhibition of EGF-R kinase using recombinant enzyme
# Condition Details: RR-SRC peptide substrate, 33P-ATP, 90 min at room temperature
Observed Property: IC50

Give the reported value of IC50 for this record: CC#CC(=O)Nc1cnc2ncc(C#N)c(Nc3ccc(F)c(Cl)c3)c2c1
> 100 nM

====

Reported IC50 for target or system Epithelial Cell Kinase (ECK) (Homo sapiens, UniProt P29317), by entry.

Under Epithelial Cell Kinase (ECK) (Homo sapiens, UniProt P29317): report IC50 of CC#CC(=O)Nc1cnc2ncc(C#N)c(Nc3cccc(Br)c3)c2c1 [Example 24] .
< 40 nM

Under Epithelial Cell Kinase (ECK) (Homo sapiens, UniProt P29317): report IC50 of Cc1ccc(Nc2c(C#N)cnc3cnc(F)cc23)cc1O [Example 66] .
> 3300 nM

Entry source: patent US6548496B2
